Assay: Cytotoxicity in LNCaP cells
Format: cell-based
Settings: human; LNCaP cells; read-out: Cytotoxicity (IC50) LNCaP cells
experimentalEndpoint: IC50

(Q) Value lookup for IC50; key = Cc1nnc(C(=O)NC(C)(C)c2nc(C(=O)NCc3ccc(F)cc3)c(O)c(=O)n2C)o1 [Raltegravir]
(A) > 100 µM

(Q) Value lookup for IC50; key = CCCCCCCCCCCCCCCCOCCCOP(=O)(O)CO[C@H](C)Cn1cnc2c(N)ncnc21 [CMX157]
(A) > 100 µM

###

Test: Cytotoxicity in PG-4 cells (XTT, TC50)
Format: cell-based, feline
Settings: cat, third determination listed in Table 3, run not given; read-out: PG-4 TC50
experimentalEndpoint: CC50 (µM)
Value expressed in µM; do not type the unit.

(Q) Value lookup for CC50; key = "CCCCCCCCCCCCCCCCOCCCOP(=O)(O)CO[C@H](C)Cn1cnc2c(N)ncnc21"
(A) 5.9
